# assay-comment: Plasma levels of codeine in rats after intravenous or intranasal administration (HPLC)
# test-context: rat, plasma, other: intranasal, 10 mg/kg
readout-name: concentration at 40 min (ng/mL)
Numbers only, in ng/mL.

The molecule listed as COc1ccc2c3c1O[C@H]1[C@@H](O)C=C[C@H]4[C@@H](C2)N(C)CC[C@@]341 shows concentration at 40 min equal to 1420

* * *

# assay-comment: Plasma levels of codeine in rats after intravenous or intranasal administration (HPLC)
# test-context: rat, plasma, iv, 10 mg/kg
# Experimental: One hundred μL of rat plasma was treated with 100 μL of acetonitrile to precipitate the proteins. This mixture was centrifuged for 5 minutes at 5,000×g. The clear supernatant was injected onto the HPLC column. The HPLC system included the following: Column: Altex 5 micron Ultrasphere, 4.6 mm×25 cm Mobile Phase: Acetonitrile: 0.01 M Acetate buffer (pH 4.0)−50:50 Standard Curve: See FIG. 1
readout-name: concentration at 5 min (ng/mL)
One number for each entry, in ng/mL.

For this molecule ( COc1ccc2c3c1O[C@H]1[C@@H](O)C=C[C@H]4[C@@H](C2)N(C)CC[C@@]341 ), measured concentration at 5 min is 5200

* * *

# assay-comment: Plasma levels of codeine in rats after intravenous or intranasal administration (HPLC)
# test-context: rat, plasma, other: intranasal, 5 mg/kg
readout-name: concentration at 10 min (ng/mL)
Numbers only, in ng/mL.

The reported value for COc1ccc2c3c1O[C@H]1[C@@H](O)C=C[C@H]4[C@@H](C2)N(C)CC[C@@]341 in terms of concentration at 10 min is 3150

* * *

# assay-comment: Plasma levels of codeine in rats after intravenous or intranasal administration (HPLC)
# test-context: rat, plasma, inhaled or intranasal, 10 mg/kg
readout-name: AUC(0-t)

AUC(0-t) reading for COc1ccc2c3c1O[C@H]1[C@@H](O)C=C[C@H]4[C@@H](C2)N(C)CC[C@@]341 : 2840 ng·h/mL

* * *

# assay-comment: Plasma levels of codeine in rats after intravenous or intranasal administration (HPLC)
# test-context: rat, plasma, other: intranasal, 10 mg/kg
readout-name: concentration at 20 min (ng/mL)
Answers are plain numbers, in ng/mL.

// recorded concentration at 20 min for COc1ccc2c3c1O[C@H]1[C@@H](O)C=C[C@H]4[C@@H](C2)N(C)CC[C@@]341 : 3320

* * *

# assay-comment: Plasma levels of codeine in rats after intravenous or intranasal administration (HPLC)
# test-context: rat, plasma, other: intranasal, 5 mg/kg
readout-name: concentration at 0 min

Quick note, concentration at 0 min for COc1ccc2c3c1O[C@H]1[C@@H](O)C=C[C@H]4[C@@H](C2)N(C)CC[C@@]341 landed at 0 ng/mL

* * *

# assay-comment: Plasma levels of codeine in rats after intravenous or intranasal administration (HPLC)
# test-context: rat, plasma, other: intranasal, 5 mg/kg
readout-name: concentration at 20 min (ng/mL)
Give bare numbers, in ng/mL.

COc1ccc2c3c1O[C@H]1[C@@H](O)C=C[C@H]4[C@@H](C2)N(C)CC[C@@]341 has a reported concentration at 20 min of 2240

* * *

# assay-comment: Plasma levels of codeine in rats after intravenous or intranasal administration (HPLC)
# test-context: rat, plasma, iv, 10 mg/kg
# Method: One hundred μL of rat plasma was treated with 100 μL of acetonitrile to precipitate the proteins. This mixture was centrifuged for 5 minutes at 5,000×g. The clear supernatant was injected onto the HPLC column. The HPLC system included the following: Column: Altex 5 micron Ultrasphere, 4.6 mm×25 cm Mobile Phase: Acetonitrile: 0.01 M Acetate buffer (pH 4.0)−50:50 Standard Curve: See FIG. 1
readout-name: concentration at 40 min (ng/mL)
One number for each entry, in ng/mL.

The value of concentration at 40 min measured for the molecule COc1ccc2c3c1O[C@H]1[C@@H](O)C=C[C@H]4[C@@H](C2)N(C)CC[C@@]341 turned out to be 1220

* * *

# assay-comment: Plasma levels of codeine in rats after intravenous or intranasal administration (HPLC)
# test-context: rat, plasma, other: intranasal, 5 mg/kg
readout-name: concentration at 40 min (ng/mL)
Numbers only, in ng/mL.

// COc1ccc2c3c1O[C@H]1[C@@H](O)C=C[C@H]4[C@@H](C2)N(C)CC[C@@]341 [Codeine] : concentration at 40 min value = 600

* * *

# assay-comment: Plasma levels of codeine in rats after intravenous or intranasal administration (HPLC)
# test-context: rat, plasma, other: intranasal, 10 mg/kg
readout-name: concentration at 0 min

Measured concentration at 0 min of COc1ccc2c3c1O[C@H]1[C@@H](O)C=C[C@H]4[C@@H](C2)N(C)CC[C@@]341 : 0 ng/mL

* * *

# assay-comment: Plasma levels of codeine in rats after intravenous or intranasal administration (HPLC)
# test-context: rat, plasma, iv, 10 mg/kg
readout-name: concentration at 60 min (ng/mL)
Give bare numbers, in ng/mL.

Looking up COc1ccc2c3c1O[C@H]1[C@@H](O)C=C[C@H]4[C@@H](C2)N(C)CC[C@@]341 , I found its concentration at 60 min recorded as 860

* * *

# assay-comment: Plasma levels of codeine in rats after intravenous or intranasal administration (HPLC)
# test-context: rat, plasma, other: intranasal, 10 mg/kg
readout-name: concentration at 60 min (ng/mL)
Answers are plain numbers, in ng/mL.

Consider COc1ccc2c3c1O[C@H]1[C@@H](O)C=C[C@H]4[C@@H](C2)N(C)CC[C@@]341 . Its measured concentration at 60 min is 1100

* * *

# assay-comment: Plasma levels of codeine in rats after intravenous or intranasal administration (HPLC)
# test-context: rat, plasma, iv, 10 mg/kg
readout-name: AUC(0-t) (ng·h/mL)
Answers are plain numbers, in ng·h/mL.

Measured AUC(0-t) of COc1ccc2c3c1O[C@H]1[C@@H](O)C=C[C@H]4[C@@H](C2)N(C)CC[C@@]341 [Codeine] : 2460

* * *

# assay-comment: Plasma levels of codeine in rats after intravenous or intranasal administration (HPLC)
# test-context: rat, plasma, inhaled or intranasal, 5 mg/kg
readout-name: AUC(0-t) (ng·h/mL)
Answers are plain numbers, in ng·h/mL.

// COc1ccc2c3c1O[C@H]1[C@@H](O)C=C[C@H]4[C@@H](C2)N(C)CC[C@@]341 [Codeine] : AUC(0-t) value = 1480

* * *

# assay-comment: Plasma levels of codeine in rats after intravenous or intranasal administration (HPLC)
# test-context: rat, plasma, other: intranasal, 5 mg/kg
readout-name: concentration at 60 min (ng/mL)
One number for each entry, in ng/mL.

Value of measured concentration at 60 min for the entry COc1ccc2c3c1O[C@H]1[C@@H](O)C=C[C@H]4[C@@H](C2)N(C)CC[C@@]341 : 560

Every entry's value here was drawn from patent US6608073B1.
